test system: CCRF-CEM leukemia; experiment: NCI-60 one-dose screen, 48 h (100 = growth as untreated, 0 = no growth, -100 = all killed); details: 10 µM unless noted
The panel holds about 83,000 compounds, 20% with a hit somewhere; the sample as a whole holds those more often.
property: growth (%)

• O=C(O)c1cccc(-n2ncc(Cl)c(Cl)c2=O)c1 = 98.3
• O=C(O)c1ccc(OCc2ccccc2)cc1 = 104
• CCOC(=O)/C(C)=C\c1ccc(OC)c(OC)c1 = 88.8
• CC(=O)Nc1ccc(O)c(C)c1 = 95.4
• C[n+]1cc2cc3c(cc2c2ccccc21)OCO3 = 57.5
• C1Cc2onc(-c3noc4c3CCC4)c2C1 = 101
• CCOC(=O)CSCCC#N = 102
• COc1cc(OC)c2cc(C(=O)c3ccc(C#N)cc3)c(=O)oc2c1 = 101
• CC(=O)OCC1CCC(COC(C)=O)CC1 (stereo not drawn) = 115
• CC(=O)N(C)N=Nc1ccc(C)cc1 = 95.6
• O=C(O)c1ccc([N+](=O)[O-])cc1S(=O)(=O)O = 81.2
• CCOC(OCC)C(=O)c1ccccc1 = 99.8
• CN(C)c1ccc(/C=C/C(=O)c2ccc(NC(N)=O)cc2)cc1 = 92.8

Where do these numbers come from? They come from PubChem BioAssay (NCI).
